Entries annotated with measured growth
Test system: MDA-MB-435 melanoma
Assay: NCI-60 one-dose screen, 48 h (100 = growth as untreated, 0 = no growth, -100 = all killed)
Details: 10 µM
The panel holds about 83,000 compounds, 20% with a hit somewhere; the sample as a whole holds those more often. Active and inactive are the calls of the source. How the source made its calls: active means growth percent below 10; inactive means the rest.

Q: For the compound shown here, `CC(C)=CCc1c2c(c(O)c3c1O[C@]14C(=C[C@@H]5C[C@H]1C(C)(C)O[C@@]4(C/C=C(/C)C(=O)O)C5=O)C3=O)C=CC(C)(C)O2` , give the reported growth.
A: -80.1% (active)

Q: Same again, this time with `CC(=O)O[C@@H]1C[C@H]2O[C@@H]3C=C(C)CC[C@]3(C)[C@]1(C)[C@]21CO1`
A: 2.02% (active)

Q: Also check `COc1cc2c(O[C@@H]3OC[C@H](O)[C@H](O)[C@H]3O)c3c(c(-c4ccc5c(c4)OCO5)c2cc1OC)C(=O)OC3`
A: 39.5% (inactive)

---

Test system: MOLT-4 leukemia
Test: NCI-60 one-dose screen, 48 h (100 = growth as untreated, 0 = no growth, -100 = all killed)
Settings: 10 µM
Description: Growth inhibition of the MOLT-4 human tumor cell line is measured as a screen for anti-cancer activity. Cells are grown in 96 well plates and exposed to the test compound for 48 hours. Compounds are tested at a single concentration, which is 10^-5 M for most compounds. The reported endpoint is percent growth (GI% or GIPRCNT), where numbers from 0 - 100% represent growth inhibition, and numbers from -100% - 0 represent cell death. For example, a value of 40 represents 60% growth inhibition. […]
About 83,000 compounds went through this panel and 20% of them were active in at least one assay; those are over-represented in the sample as a whole.
parameter: growth (%)
// units = %; emit number, no label

C[C@@H]1C[C@H]2C(=O)O[C@@H](C)C(NC(=O)[C@H](Cc3cc(F)cc(F)c3)NC(=O)Nc3ccc(OS(=O)(=O)F)cc3)C(=O)N3CCC[C@H]3C(=O)N3CCO[C@H](C)[C@H]3C(=O)N[C@@H](CO)C(=O)N2C1 (some centres undefined) = 43.8
COc1cc2c(O[C@@H]3OC[C@H](OC(C)=O)[C@H](OC(C)=O)[C@H]3O)c3c(c(-c4ccc5c(c4)OCO5)c2cc1OC)C(=O)OC3 = 13.7
CN1C(=O)[C@]23SSC1(C)C(=O)N2[C@H]1Nc2ccccc2C1([C@@]12c4ccccc4N[C@@H]1N1C(=O)C4(C)SS[C@]1(C(=O)N4C)[C@H]2O)[C@@H]3O (some centres undefined) = -20.6

Now for a further compound.
Q: For MOLT-4 leukemia, provide growth of `CC1=C(CN(O)C(N)=O)C2=C(C)C3(CC3)[C@@](C)(O)C(=O)C2=C1` please.
A: 104

---

System: SF-539 CNS
Assay: NCI-60 one-dose screen, 48 h
Conditions: 10 µM
The panel holds about 83,000 compounds, 20% with a hit somewhere; the sample as a whole holds those more often. Active and inactive are the calls of the source. The calls were made as follows: active = growth percent below 10; inactive = the rest.
Tick one outcome: active, inactive

Solved cases below.
CC1=C2C(=C[C@@](C)(COC(=O)c3ccc(S(=O)(=O)F)cc3)[C@@H]2OC(=O)c2ccc(S(=O)(=O)F)cc2)C(=O)[C@](C)(O)C12CC2 = active
C[C@@H]1C[C@H]2C(=O)O[C@@H](C)C(NC(=O)[C@H](Cc3cc(F)cc(F)c3)NC(=O)Nc3ccc(OS(=O)(=O)F)cc3)C(=O)N3CCC[C@H]3C(=O)N3CCO[C@H](C)[C@H]3C(=O)N[C@@H](CO)C(=O)N2C1 (stereo partly specified) = inactive
CC1=C(CN(O)C(N)=O)C2=C(C)C3(CC3)[C@@](C)(O)C(=O)C2=C1 = active

Q: Which outcome did this test record for the molecule `CC1=C[C@H]2O[C@@H]3C[C@H]4OC(=O)/C=C\C=C\[C@H]([C@@H](C)O)OCC/C(C)=C/C(=O)OC[C@@]2(CC1)[C@]4(C)[C@]31CO1` ?
A: active

Q: Let us now turn to CC(=O)O[C@@H]1[C@@H]2O[C@H]2[C@@](C)(O)C(=O)[C@@H](C)C/C=C/[C@H]2[C@@H]3O[C@]3(C)[C@@H](C)C3[C@H](Cc4ccccc4)NC(=O)[C@@]312 (stereo partly specified)
A: inactive

Q: Note, next up: `CC1=C(CCC=NNC(N)=O)C2=C(C)C3(CC3)[C@@](C)(O)C(=O)C2=C1`
A: active
